Cited source: the supplement of paper PMC10567573

B1: ZNF8 (parent)
chain: KPYTCSVCGKSFSRTTCLFLHLRT

- Variants of: B1
- procedure summary: protein stability index of a GFP-peptide fusion (GPS, HEK-293T) (PSI 1-6); higher = more stable;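 note: lentivirally expressed fusions sorted by FACS into six bins by GFP to DsRed ratio, PSI derived from sequencing read proportions per bin multiplied by bin number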
- stated conditions: c terminus: a fixed tail appended
variants and their reported protein stability index
I'd appreciate a reply containing only the number, no unit.

Study these solved cases before continuing.
[
  {
    "mutant name": "V7T",
    "protein stability index": 1.91
  },
  {
    "mutant name": "C5W",
    "protein stability index": 2.06
  }
]

Request: What does the record list as protein stability index for R23V ?
Response: 2

Request: Cool, now C5Q
Response: 2.29

Request: Cool, now P2D
Response: 2.33

Request: Cool, now K1N
Response: 2.36

Request: Cool, now T16K
Response: 1.56
